- target-of-assay: H/K/N RAS wt(55-64) peptide … with HLA-A1 and b2M on peptide-pulsed SigM5 cells (human)
- protocol-description: flow cytometry, phage-displayed scFv on peptide-pulsed SigM5 cells (FIG. 14)
measure-name: binding result

H/R/N RAS Q61R_A1_c116 (scFv) scFv: DIQMTQSPSSLSASVGDRVTITCRASQDVNTAVAWYQQKPGKAPKLLIYSASFLYSGVPSRFSGSRSGTDFTLTISSLQPEDFATYYCQQAHMIPITFGQGTKVEIKRTGGGSGGGGSGGGASEVQLVESGGGLVQPGGSLRLSCAASGFNFSFPGMHWVRQAPGKGLEWVAWFVGYDGYTYYADSVKGRFTISADTSKNTAYLQMNSLRAEDTAVYYCSRDYYSFSMDYWGQGTLVTVSS :: no binding
H/R/N RAS Q61R_A1_c118 (scFv) scFv: DIQMTQSPSSLSASVGDRVTITCRASQDVNTAVAWYQQKPGKAPKLLIYSASFLYSGVPSRFSGSRSGTDFTLTISSLQPEDFATYYCQQSYTSPLTFGQGTKVEIKRTGGGSGGGGSGGGASEVQLVESGGGLVQPGGSLRLSCAASGFNIYYGVMHWVRQAPGKGLEWVAMIYPDSSWTYYADSVKGRFTISADTSKNTAYLQMNSLRAEDTAVYYCSRDQDFHYMNYYLSYALDYWGQGTLVTVSS :: no binding
H/K/N RAS Q61K_A1_c16 (scFv) scFv: DIQMTQSPSSLSASVGDRVTITCRASQDVNTAVAWYQQKPGKAPKLLIYSASFLYSGVPSRFSGSRSGTDFTLTISSLQPEDFATYYCQQHYYSPVTFGQGTKVEIKRTGGGSGGGGSGGGASEVQLVESGGGLVQPGGSLRLSCAASGFNIFYQDMHWVRQAPGKGLEWVAMIYPDYDYTYYADSVKGRFTISADTSKNTAYLQMNSLRAEDTAVYYCSRTYSVYMDYWGQGTLVTVSS :: no binding
